Provenance of the data: ChEMBL document CHEMBL1201862

- Tested on: U-251
- assay_procedure: NCI tumour cell line growth inhibition, 48 h
Calls of active or inactive are those of the source. No stated cut-off is given here; in the data, active = GI50 up to about 1.1 µM and inactive = higher.
readout: GI50

molecule | readout | result
Cc1cccc(Br)[n+]1[O-] | GI50 | > 100 µM (inactive)
Cc1c(Cl)ccc2c(=O)c3cccc(CC(=O)O)c3oc12 | GI50 | > 100 µM (inactive)
O=C(O)C1OC(Oc2cc(O)c3c(=O)cc(-c4ccc(O)cc4)oc3c2)C(O)C(O)C1O (stereo unspecified) | GI50 | > 100 µM (inactive)
O=C(/C=C/c1ccc2c(c1)OCO2)NCc1ccco1 | GI50 | > 100 µM (inactive)
COc1ccccc1-n1c(C)nc2ccccc2c1=O | GI50 | > 100 µM (inactive)
O=C1c2cc([N+](=O)[O-])ccc2-c2cccc(F)c21 | GI50 | 90.4 µM (inactive)
Cc1csc2c(=O)n(C3OC(CO)C(O)C3O)c(=O)[nH]c12 (stereo unspecified) | GI50 | > 100 µM (inactive)
Nc1ccc2c(c1)C(=O)N(OS(=O)(=O)c1ccccc1)C2=O | GI50 | > 100 µM (inactive)
CCOC1CCC2C(CCC(/C=C/c3ccc(O)c4ncccc34)N2C)C1 (stereo unspecified) | GI50 | 15.4 µM (inactive)
COC(=O)C(Br)C1CCc2ccccc21 (stereo unspecified) | GI50 | > 100 µM (inactive)
CS/C(=N\S(=O)(=O)c1ccc(Cl)cc1)NCCN/C(=N/S(=O)(=O)c1ccc(Cl)cc1)SC | GI50 | 18 µM (inactive)
